- target_desc: T1, rat NK1 receptor (rat, UniProt P14600)
- T1 chain: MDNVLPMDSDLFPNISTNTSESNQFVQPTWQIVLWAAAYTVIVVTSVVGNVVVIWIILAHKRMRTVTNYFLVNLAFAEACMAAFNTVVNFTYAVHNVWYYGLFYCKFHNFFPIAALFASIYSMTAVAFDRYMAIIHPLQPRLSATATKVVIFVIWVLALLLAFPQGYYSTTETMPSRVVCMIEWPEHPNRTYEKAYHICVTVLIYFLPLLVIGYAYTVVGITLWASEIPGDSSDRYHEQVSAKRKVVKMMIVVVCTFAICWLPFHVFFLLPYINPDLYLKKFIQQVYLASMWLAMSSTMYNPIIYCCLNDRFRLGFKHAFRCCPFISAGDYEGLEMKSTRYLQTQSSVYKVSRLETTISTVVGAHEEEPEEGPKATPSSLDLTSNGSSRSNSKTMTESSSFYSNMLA
- assay: competition
Non-standard residues stand in square brackets, D forms with d. No end group written: not given here. *: point of attachment. Dmt = Cc1cc(O)cc(C)c1C[C@H](N)C(=O)O; NMeF = CN[C@@H](Cc1ccccc1)C(=O)O; hSer = N[C@@H](CCO)C(=O)O; Orn = NCCC[C@H](N)C(=O)O; Dab = NCC[C@H](N)C(=O)O; Dap = NC[C@H](N)C(=O)O; NHBn = c1ccc(CN*)cc1
Threshold-based label: Ki under 30 nM gives Condition met, Ki not under 30 nM gives Condition not met.

*Q* Hello, I'm reviewing records and need to know if Ki of Y[dA]G[NMeF][Dab]PLW-NHBn [AKG172] is below 30 nM. Could you check?
*A* Condition met

*Q* Please answer likewise for Y[dA]G[NMeF]KPLW (not fully specified (C-terminus)) [AKG174]
*A* Condition met

*Q* Entry to check: Y[dA]GFSPLW (not fully specified (C-terminus)) [AKG038]
*A* Condition not met

*Q* Would you mind doing [Dmt][dA]G[NMeF]SPLW-NHBn [AKG132] as well?
*A* Condition not met

*Q* Would you kindly repeat that for Y[dA]GF[hSer]PLW-NHBn [AKG039] ?
*A* Condition not met

*Q* Now the binder Y[dA]G[NMeF]SPLW-NHBn [AKG126]
*A* Condition not met

*Q* Follow-up item: Y[dA]GF[dS]PLW-NHBn [AKG101]
*A* Condition not met

*Q* Repeat for the following binder: Y[dA]G[NMeF][Dap]PLW-NHBn [AKG171]
*A* Condition met

*Q* Would you kindly repeat that for Y[dA]G[NMeF][Orn]PLW (not fully specified (C-terminus)) [AKG173] ?
*A* Condition not met
